Test system: dengue virus type 2
Test: Inhibition of N-terminal hexa-histidine tagged Dengue virus 2 NS2B/NS3 protease I30A/L31A mutant expressed in Escherichia coli BL21-Gold (DE3) at 20 uM using fluorogenic AMC-substituted peptide boc-GRR-7-amino-4-methylcoumarin measured every 30 secs for 10 mins by fluorometric assay relative to control
Calls of active or inactive are those of the source. No cut-off for these calls is given here.
propertyName: inhibition

molecule=COc1ccc2cc(Oc3ccccc3C(=O)Nc3nc4cc(OC)c(OC)cc4s3)ccc2c1 systemundertest="dengue virus type 2" resultvalue=inactive
molecule=COc1ccc(S(=O)(=O)N2CCC[C@@H]2C(=O)Nc2nc3cc(OC)c(OC)cc3s2)cc1 systemundertest="dengue virus type 2" resultvalue=inactive
molecule=O=C(Nc1nc2cc(O)c(O)cc2s1)[C@H]1CCCN1S(=O)(=O)c1ccc(Cl)cc1 systemundertest="dengue virus type 2" resultvalue=34%
molecule=O=C(Nc1nc2cc(O)c(O)cc2s1)[C@H]1CCCN1C(=O)c1ccccc1 systemundertest="dengue virus type 2" resultvalue=33%
molecule=COc1ccc(S(=O)(=O)N2CCC[C@H]2C(=O)Nc2nc3cc(O)c(O)cc3s2)cc1 systemundertest="dengue virus type 2" resultvalue=36%
molecule=O=C(Nc1nc2cc(O)c(O)cc2s1)[C@H]1CCCN1S(=O)(=O)c1ccccc1 systemundertest="dengue virus type 2" resultvalue=21%
molecule=O=C(Nc1nc2cc(O)c(O)cc2s1)[C@@H]1CCCN1S(=O)(=O)c1ccc(Cl)cc1 systemundertest="dengue virus type 2" resultvalue=39%
molecule=CC(=O)Nc1ccc2cc(S(=O)(=O)N3CCC[C@@H]3C(=O)Nc3nc4cc(O)c(O)cc4s3)ccc2c1 systemundertest="dengue virus type 2" resultvalue=18%
molecule=O=C(Nc1nc2cc(O)c(O)cc2s1)[C@@H]1CCCN1S(=O)(=O)c1ccccc1 systemundertest="dengue virus type 2" resultvalue=27%
molecule=O=C(Nc1nc2cc(O)c(O)cc2s1)[C@@H]1CCCN1C(=O)c1ccccc1 systemundertest="dengue virus type 2" resultvalue=28%
molecule=O=C(Nc1nc2cc(O)c(O)cc2s1)[C@H]1CCCN1S(=O)(=O)c1ccc(F)cc1 systemundertest="dengue virus type 2" resultvalue=17%
molecule="COc1cc2nc(NC(=O)C3CCCN3S(=O)(=O)c3ccc([N+](=O)[O-])cc3)sc2cc1OC (centres undefined)" systemundertest="dengue virus type 2" resultvalue=inactive
molecule=O=C(Nc1nc2cc(O)c(O)cc2s1)[C@H]1CCCN1S(=O)(=O)c1cccc([N+](=O)[O-])c1 systemundertest="dengue virus type 2" resultvalue=33%
molecule=Cc1ccc(S(=O)(=O)N2CCC(C(=O)Nc3nc4cc(O)c(O)cc4s3)CC2)cc1 systemundertest="dengue virus type 2" resultvalue=41%
molecule="Cc1ccc(S(=O)(=O)N2CCCC(C(=O)Nc3nc4cc(O)c(O)cc4s3)C2)cc1 (racemic)" systemundertest="dengue virus type 2" resultvalue=34%
molecule="COc1cc2nc(NC(=O)C3CCCN3S(=O)(=O)c3ccc(Cl)cc3)sc2cc1OC (centres undefined)" systemundertest="dengue virus type 2" resultvalue=inactive
molecule=O=C(Nc1nc2ccc([N+](=O)[O-])cc2s1)[C@@H]1CCCN1C(=O)c1ccccc1 systemundertest="dengue virus type 2" resultvalue=41%
molecule="COc1cc2nc(NC(=O)C3CCCN3S(=O)(=O)c3ccc(C)cc3)sc2cc1OC (centres undefined)" systemundertest="dengue virus type 2" resultvalue=inactive
molecule=COc1ccc(S(=O)(=O)N2CCC[C@@H]2C(=O)Nc2nc3cc(O)c(O)cc3s2)cc1 systemundertest="dengue virus type 2" resultvalue=28%

###

A collection of compounds and their measured IC50
Target: Nonstructural protein 3 (Zika virus)
Sequence (A0A024AXB9 whole entry): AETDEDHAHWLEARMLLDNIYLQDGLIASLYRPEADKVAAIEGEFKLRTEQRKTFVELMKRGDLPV
Assay: Inhibition of N-terminal hexa-histidine tagged Zika virus NS2B/NS3 protease expressed in Escherichia coli BL21-Gold (DE3) using fluorogenic AMC-substituted peptide boc-GRR-7-amino-4-methylcoumarin measured every 30 secs for 10 mins by fluorometric assay
propertyName: IC50 (nM)

compound=Cc1ccc(S(=O)(=O)N2CCCC[C@@H]2C(=O)Nc2nc3cc(O)c(O)cc3s2)cc1 systemundertest="Nonstructural protein 3 (Zika virus)" propertyname=IC50 resultvalue=580
compound=O=C(Nc1nc2cc(O)c(O)cc2s1)[C@H]1CCCN1C(=O)c1ccccc1 systemundertest="Nonstructural protein 3 (Zika virus)" propertyname=IC50 resultvalue=940
compound=CC(=O)Nc1ccc2cc(S(=O)(=O)N3CCC[C@H]3C(=O)Nc3nc4cc(O)c(O)cc4s3)ccc2c1 systemundertest="Nonstructural protein 3 (Zika virus)" propertyname=IC50 resultvalue=2950
compound=O=C(Nc1nc2cc(O)c(O)cc2s1)[C@@H]1CCCN1C(=O)c1ccccc1 systemundertest="Nonstructural protein 3 (Zika virus)" propertyname=IC50 resultvalue=1550
compound=Cc1ccc(S(=O)(=O)N2CCCC[C@H]2C(=O)Nc2nc3cc(O)c(O)cc3s2)cc1 systemundertest="Nonstructural protein 3 (Zika virus)" propertyname=IC50 resultvalue=510
compound="Cc1ccc(S(=O)(=O)N2CCCC(C(=O)Nc3nc4cc(O)c(O)cc4s3)C2)cc1 (racemic)" systemundertest="Nonstructural protein 3 (Zika virus)" propertyname=IC50 resultvalue=4550
compound=O=C(Nc1nc2cc(O)c(O)cc2s1)[C@H]1CCCN1S(=O)(=O)c1ccc([N+](=O)[O-])cc1 systemundertest="Nonstructural protein 3 (Zika virus)" propertyname=IC50 resultvalue=320
compound=Cc1ccc(S(=O)(=O)N2CCC(C(=O)Nc3nc4cc(O)c(O)cc4s3)CC2)cc1 systemundertest="Nonstructural protein 3 (Zika virus)" propertyname=IC50 resultvalue=5950
compound=O=C(Nc1nc2cc(O)c(O)cc2s1)[C@@H]1CCCN1S(=O)(=O)c1ccccc1 systemundertest="Nonstructural protein 3 (Zika virus)" propertyname=IC50 resultvalue=1430
compound=O=C(Nc1nc2cc(O)c(O)cc2s1)[C@H]1CCCN1S(=O)(=O)c1ccc(-c2ccccc2)cc1 systemundertest="Nonstructural protein 3 (Zika virus)" propertyname=IC50 resultvalue=2470
compound=O=C(Nc1nc2cc(O)c(O)cc2s1)[C@H]1CCCN1S(=O)(=O)c1ccccc1 systemundertest="Nonstructural protein 3 (Zika virus)" propertyname=IC50 resultvalue=1860
compound=O=C(Nc1nc2cc(O)c(O)cc2s1)[C@H]1CCCN1S(=O)(=O)c1ccc(F)cc1 systemundertest="Nonstructural protein 3 (Zika virus)" propertyname=IC50 resultvalue=1030
compound=Cc1ccc(S(=O)(=O)N2CCC[C@@H]2C(=O)Nc2nc3cc(O)c(O)cc3s2)cc1 systemundertest="Nonstructural protein 3 (Zika virus)" propertyname=IC50 resultvalue=1320
compound=O=C(Nc1nc2cc(O)c(O)cc2s1)[C@H]1CCCN1S(=O)(=O)c1ccc(Cl)cc1 systemundertest="Nonstructural protein 3 (Zika virus)" propertyname=IC50 resultvalue=1400
compound=O=C(Nc1nc2cc(O)c(O)cc2s1)[C@H]1CCCN1S(=O)(=O)c1cccc([N+](=O)[O-])c1 systemundertest="Nonstructural protein 3 (Zika virus)" propertyname=IC50 resultvalue=1110
compound=Cc1ccc(S(=O)(=O)Nc2ccccc2C(=O)Nc2nc3cc(O)c(O)cc3s2)cc1 systemundertest="Nonstructural protein 3 (Zika virus)" propertyname=IC50 resultvalue=6430
compound=Cc1ccc(S(=O)(=O)NCC(=O)Nc2nc3cc(O)c(O)cc3s2)cc1 systemundertest="Nonstructural protein 3 (Zika virus)" propertyname=IC50 resultvalue=810
compound=O=C(Nc1nc2cc(O)c(O)cc2s1)[C@@H]1CCCN1S(=O)(=O)c1cccc([N+](=O)[O-])c1 systemundertest="Nonstructural protein 3 (Zika virus)" propertyname=IC50 resultvalue=1780
compound=CC(=O)Nc1ccc2cc(S(=O)(=O)N3CCC[C@@H]3C(=O)Nc3nc4cc(O)c(O)cc4s3)ccc2c1 systemundertest="Nonstructural protein 3 (Zika virus)" propertyname=IC50 resultvalue=1350
compound=Cc1ccc(S(=O)(=O)N2CCC[C@H]2C(=O)Nc2nc3cc(O)c(O)cc3s2)cc1 systemundertest="Nonstructural protein 3 (Zika virus)" propertyname=IC50 resultvalue=2320
compound=O=C(Nc1nc2cc(O)c(O)cc2s1)c1ccccc1Oc1ccc2cc(O)ccc2c1 systemundertest="Nonstructural protein 3 (Zika virus)" propertyname=IC50 resultvalue=1410
compound=COc1ccc(S(=O)(=O)N2CCC[C@H]2C(=O)Nc2nc3cc(O)c(O)cc3s2)cc1 systemundertest="Nonstructural protein 3 (Zika virus)" propertyname=IC50 resultvalue=1320
compound=COc1ccc(S(=O)(=O)N2CCC[C@@H]2C(=O)Nc2nc3cc(O)c(O)cc3s2)cc1 systemundertest="Nonstructural protein 3 (Zika virus)" propertyname=IC50 resultvalue=860
compound=O=C(Nc1nc2cc(O)c(O)cc2s1)[C@@H]1CCCN1S(=O)(=O)c1ccc(Cl)cc1 systemundertest="Nonstructural protein 3 (Zika virus)" propertyname=IC50 resultvalue=930
compound=O=C(Nc1nc2cc(O)c(O)cc2s1)[C@@H]1CCCN1S(=O)(=O)c1ccc(-c2ccccc2)cc1 systemundertest="Nonstructural protein 3 (Zika virus)" propertyname=IC50 resultvalue=3170
compound=O=C(Nc1nc2ccc([N+](=O)[O-])cc2s1)[C@H]1CCCN1C(=O)c1ccccc1 systemundertest="Nonstructural protein 3 (Zika virus)" propertyname=IC50 resultvalue=21900
compound=O=C(Nc1nc2cc(O)c(O)cc2s1)[C@@H]1CCCN1S(=O)(=O)c1ccc([N+](=O)[O-])cc1 systemundertest="Nonstructural protein 3 (Zika virus)" propertyname=IC50 resultvalue=930

Reference source: ChEMBL document CHEMBL4334527
